- System: SF-295
- assay: NCI tumour cell line growth inhibition, 48 h
The source made the active and inactive calls. Rule as the data show it: active = GI50 up to about 1.1 µM and inactive = higher.
endpoint_name: GI50

Example molecules with recorded GI50:
{"columns": ["molecule", "GI50"],
 "data": [
  ["c1ccc(SC(CCCCOC2CCCCO2)Sc2ccccc2)cc1 (stereo unspecified)", "> 100 µM (inactive)"],
  ["CCn1c(=O)c2ccccc2n2c(=O)c3cc4ccccc4cc3nc12", "28.3 µM (inactive)"],
  ["CNC(=O)NCCN1CC2CCC(CC2)C1", "> 10 µM (inactive)"],
  ["CC(Oc1ccccc1Cl)C(=O)NN1C(=O)CC(=O)NC1=S (stereo unspecified)", "89.5 µM (inactive)"],
  ["COc1cccc2c1CCc1c(-c3ccc(F)cc3)cc(-c3ccc4ccccc4n3)nc1-2", "> 100 µM (inactive)"],
  ["CCOC(=O)CCC(NC(=O)c1ccc(CNc2nc3ccccc3nc2C(=O)OCC)cc1)C(=O)OCC (stereo unspecified)", "> 100 µM (inactive)"],
  ["CCC/C=C1\\CCC(CN(C)C)C1=O (stereo unspecified)", "24.1 µM (inactive)"],
  ["CNC(=O)NCCN1N=C(C)/C(=C\\c2ccccc2)CC1=O", "> 100 µM (inactive)"],
  ["O=C(CCl)NNC1=Nc2ccc(Cl)cc2SC1", "15.1 µM (inactive)"],
  ["COc1ccc(-c2c(C#N)c(-c3ccc(C)cc3)n(NS(=O)(=O)c3ccccc3)c(=O)c2C#N)cc1", "32.7 µM (inactive)"]
]}

Now look at this one.
Q: Tell me GI50 of COC1=C2CC(C)CC(OC)C(OC(=O)CN)[C@H](C)/C=C(\C)C(OC(N)=O)C(OC)/C=C\C=C(/C)C(=O)NC(=CC1=O)C2=O (stereo partly specified) when tested on SF-295.
Result: 3.84 µM (inactive)
